Where these numbers come from: the supplement of paper PMC11208160

# EXPERIMENTAL DETAILS: recombinant UMI read abundance after kanamycin selection (control-corrected) (log10(CPM+1)); higher = more efficient recombination; extreme values may be limits of the assay; sequences stand for … in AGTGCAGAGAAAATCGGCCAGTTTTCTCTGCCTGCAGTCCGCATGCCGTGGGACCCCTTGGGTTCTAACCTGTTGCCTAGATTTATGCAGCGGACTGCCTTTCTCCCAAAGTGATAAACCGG…AGGTTGGTTTCACT; site = the 11-nt donor;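 also: IS621 bridge recombinase in Escherichia coli cells against a fixed T5 target plasmid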
The following sequences are listed with their measured recombinant UMI read abundance (log10) values.
Please give only the number in your answer, with no unit.

Take a look at these entries with their results.
INPUT SEQUENCE | MEASUREMENT KIND | VALUE OBSERVED
CCTAGAACATGGACCGGTTTTCCCGGTAATCCGTATTTGAG (site CCTAGAACTCT) | recombinant UMI read abundance (log10) | 0.00591
TGAGAGACATGGACCGGTTTTCCCGGTAATCCGTATTTGCG (site TCAGAGACTCG) | recombinant UMI read abundance (log10) | 0.426
CCCTAGCCATGGACCGGTTTTCCCGGTAATCCGTATTTGCC (site CCCTAACCTGG) | recombinant UMI read abundance (log10) | 0
CTCAAAGCATGGACCGGTTTTCCCGGTAATCCGTATTTGCG (site CTCAAAGCTCG) | recombinant UMI read abundance (log10) | 0.762
CTGCTACCATGGACCGGTTTTCCCGGTAATCCGTATTTGTT (site CTGCTACCTAC) | recombinant UMI read abundance (log10) | 0.0167
AATGTAACATGGACCGGTTTTCCCGGTAATCCGTATTTGCT (site GATGTAACTAG) | recombinant UMI read abundance (log10) | 1.57

stdin: Which recombinant UMI read abundance (log10) value belongs to GTAGTCGCATGGACCGGTTTTCCCGGTAATCCGTATTTGCG (site GTGGTCGCTCG) ?
stdout: 0.0189
